System: CAKI-1 renal
test-name: NCI tumour cell line growth inhibition, 48 h
property-name: TGI

Reference set (2 entries):
- compound: "Cc1cc(S(=O)(=O)Nc2nc(N)nc(N(C)C)n2)c(SCC(=O)O)cc1Cl"
  observed: "> 10 µM"
- compound: "COC(=O)C(Cc1nc2ccccc2[nH]c1=O)C(=O)C(=O)Nc1ccc([N+](=O)[O-])cc1[N+](=O)[O-] (stereo not drawn)"
  observed: "> 100 µM"

Now look at this one.
Q: Could you share which TGI value was measured for CCCCCCCCCCC1OC([C@@H](O)CC[C@H](O)C2CC[C@@H](CCCCCCCC(O)CC3=CC(C)OC3=O)O2)CCC1O (stereo partly drawn) ?
Ans: > 25 µM

---

System: HCC-2998 colon
test-name: NCI tumour cell line growth inhibition, 48 h
property-name: TGI

Reference set (10 entries):
- molecule: "O=C1CCCCCCCCCCC1CN1CCCCC1 (stereo unspecified)"
  observed: "> 100 µM"
- molecule: "CCOc1cccc2ccc[n+](CC)c12"
  observed: "> 100 µM"
- molecule: "Cc1cccc(C)c1NC(=O)Nc1ccc(S(N)(=O)=O)cc1"
  observed: "> 100 µM"
- molecule: "CC(=O)On1c(-c2ccccc2-c2nc3ccccc3n2OC(C)=O)nc2ccccc21"
  observed: "> 100 µM"
- molecule: "COC1=CC(=O)C2C(C1=O)C(c1ccccc1)[C@H]2C (stereo partly specified)"
  observed: "> 100 µM"
- molecule: "CC(C)(C)C(=O)OCC1CCC(n2cnc3c(=O)[nH]c(N)nc32)O1 (stereo unspecified)"
  observed: "> 100 µM"
- molecule: "NC(=O)c1cccc(Nc2nccc(Nc3cccc4[nH]ncc34)n2)c1"
  observed: "> 25 µM"
- molecule: "COc1cc2c(=O)cnoc2cc1O"
  observed: "> 100 µM"
- molecule: "C/C=C/C1OC(O)(C(C)C(O)[C@H](C)C2OC(=O)/C(OC)=C/C(C)=C/[C@@H](C)[C@@H](O)[C@@H](C)C(O)C(C)C/C(C)=C/C=C/C2OC)C[C@@H](OC2CC(O)C(OC(N)=O)C(C)O2)C1C (stereo partly specified)"
  observed: "< 0.01 µM"
- molecule: "CN1C(=O)C(=O)c2cc3c(c4c2c1cc1ccccc14)OCO3"
  observed: "> 100 µM"

Now look at this one.
Q: Could you share which TGI value was measured for O=c1[nH]c2cc(Cl)ccc2nc1/C(=N\O)C(O)c1ccc([N+](=O)[O-])cc1 (stereo unspecified) ?
Ans: > 100 µM

---

System: MALME-3M melanoma
test-name: NCI tumour cell line growth inhibition, 48 h
property-name: TGI

Reference set (8 entries):
- compound: "COc1ccc(C2C3COc4ccccc4C3=NN2c2ccccc2)cc1 (stereo unspecified)"
  target: "MALME-3M melanoma"
  TGI: "> 100 µM"
- compound: "Cc1ccc(/C(O)=C/c2nc3ccccc3s/c2=N/CS(=O)(=O)c2ccc(C)cc2)cc1"
  target: "MALME-3M melanoma"
  TGI: "> 10 µM"
- compound: "CN(/N=C/c1ccnc2ccccc12)c1ccc(Cl)cc1[N+](=O)[O-]"
  target: "MALME-3M melanoma"
  TGI: "> 100 µM"
- compound: "CCOC(=O)CC(=O)Nc1cccc2[nH]cnc12"
  target: "MALME-3M melanoma"
  TGI: "> 100 µM"
- compound: "c1c[nH]c(C23C4C5C6C4C2C6C53)n1 (stereo unspecified)"
  target: "MALME-3M melanoma"
  TGI: "> 100 µM"
- compound: "CC(=O)N=C1N(/C=C2\\C(=O)Oc3ccccc3C2=O)C(=O)/C(=C/c2ccc(Cl)cc2Cl)N1C"
  target: "MALME-3M melanoma"
  TGI: "> 100 µM"
- compound: "Cc1cc(=O)oc2c(C)c(OCCCOc3ccc4c(C)cc(=O)oc4c3C)ccc12"
  target: "MALME-3M melanoma"
  TGI: "> 100 µM"
- compound: "O=[N+]([O-])c1cc2c(cc1/C=N/n1c(CO)nc3ccccc31)OCO2"
  target: "MALME-3M melanoma"
  TGI: "> 100 µM"

Q: # get_value(readout= TGI, system= MALME-3M melanoma) for O=c1[nH]nc(Cc2ccccc2)n1CCO
Ans: > 100 µM

Q: Param item: C[N+]1(CCCl)CC[N+](C)(CCCl)CC1 (stereo unspecified)
Ans: > 100 µM

Q: Param item: NNC(=O)c1nnn(CCc2ccccc2)c1C(=O)NN
Ans: > 100 µM

---

Test system: SNB-19 CNS
test-name: NCI tumour cell line growth inhibition, 48 h
property-name: TGI

Reference set (2 entries):
- compound: "CC(=O)NC1=C[C@@H]([C@H]2COC(C)(C)O2)OC1=O"
  target: "SNB-19 CNS"
  observed: "> 100 µM"
- compound: "CCCCCCCCCCCCCCCC(=O)N(CCCCCCCCCCC(=O)O)CC(O)C(O)C(OC1OC(CO)C(O)C(O)C1O)C(O)CO (stereo not drawn)"
  target: "SNB-19 CNS"
  observed: "52.9 µM"

Q: Could you share which TGI value was measured for COc1cc(CNc2ccccc2C(=O)N2CCN(C(=O)c3cc(-c4cc(OC)c(OC)c(OC)c4)n4nc(-c5ccccc5)cc4n3)CC2)cc(OC)c1OC ?
Ans: > 100 µM

---

Tested on: CCRF-CEM leukemia
test-name: NCI tumour cell line growth inhibition, 48 h
property-name: TGI

Reference set (3 entries):
- compound: "CCCCCCCCCCC1OC([C@@H](O)CC[C@H](O)C2CC[C@@H](CCCCCCCC(O)CC3=CC(C)OC3=O)O2)CCC1O (some centres undefined)"
  target: "CCRF-CEM leukemia"
  TGI: "> 25 µM"
- compound: "CCOC(=N)CC(=O)c1ccccc1"
  target: "CCRF-CEM leukemia"
  TGI: "> 100 µM"
- compound: "COc1cc(Nc2nc3ccccc3cc2C(=O)Nc2ccc(F)c(F)c2)cc(OC)c1OC"
  target: "CCRF-CEM leukemia"
  TGI: "> 100 µM"

Now look at this one.
Q: Could you share which TGI value was measured for N#Cc1c(-c2ccccc2)[nH]c(=O)n(C2OC(CO)C(O)C(O)C2O)c1=O (centres undefined) ?
Ans: > 100 µM

---

Tested on: NCI-H226 lung
test-name: NCI tumour cell line growth inhibition, 48 h
Each record here notes measured GI50.

Reference set (5 entries):
- compound: "COc1cccc(NC(=O)c2sc3nc4c(cc3c2N)C(=O)CCC4)c1"
  observed: "2.18 µM"
- compound: "O=C(Nc1ccc(-n2ccc3c(NC(=O)c4ccccc4)ncnc32)cc1)Nc1cccc(Cl)c1Cl"
  observed: "1.07 µM"
- compound: "CC(=O)[CH-]C(=O)c1ccccc1.CC(=O)[CH-]C(=O)c1ccccc1.CCOCC[O-].CCOCC[O-].[Ti+4]"
  observed: "5.55 µM"
- compound: "COC(=O)c1cc(O)c2c(c1C(=O)OC)C[C@H]1[C@@H]3CC=C4C[C@@H](O)CC[C@]4(C)[C@H]3CC[C@]21C"
  observed: "3.78 µM"
- compound: "COc1ccc2c(c1)CC[C@H](O)/C2=C/c1cc(OC)c(OC)c(OC)c1"
  observed: "2.95 µM"

Q: # get_value(readout= GI50, system= NCI-H226 lung) for O=Cc1ccc(-c2ccc(-c3nc4ccccc4o3)cc2)o1
Ans: 17.9 µM

Q: Param item: COc1ccc(C(=O)c2cc3c(N)c(C(=O)Nc4ccc(C)cc4)sc3nc2C)cc1
Ans: 4.22 µM

Q: Param item: COc1nc(N)nc2c1ncn2C1OC(CO)C(O)C1O (configuration not stated)
Ans: > 5000 µM

Q: Param item: Nc1nc(N)c2cc(NCc3ccc(Cl)c(Cl)c3)ccc2n1
Ans: 1.53 µM

Q: Param item: COc1cc(-c2nc(-c3nc4ccccc4[nH]3)cc3c2[nH]c2ccccc23)cc(OC)c1OC
Ans: 7.19 µM

Q: Param item: CCCC(CCC)C(=O)OCC1(CO)C/C(=C\c2ccc(F)cc2)C(=O)O1 (configuration not stated)
Ans: 11.7 µM

Q: Param item: COc1cc(CNc2ccccc2C(=O)N2CCN(C(=O)c3cc(-c4cc(OC)c(OC)c(OC)c4)n4nc(-c5ccccc5)cc4n3)CC2)cc(OC)c1OC
Ans: 4.44 µM

---

Tested on: OVCAR-4 ovarian
test-name: NCI tumour cell line growth inhibition, 48 h
property-name: TGI

- compound: "Cn1c(=O)c2nc(-c3ccc(Cl)cc3)oc2n(C)c1=O"
  observed: "> 100 µM"
- compound: "CC(=O)OCC1OC(Oc2cc(C)c(O)cc2C/C=C(\\C)CC/C=C(\\C)CC(=O)CC(C)C)C(O)C(OC(C)=O)C1OC(C)=O (configuration not stated)"
  observed: "> 50 µM"
- compound: "C/C=C/CC(C)[C@@H](O)[C@H](NC)C(=O)O (some centres not stated)"
  observed: "> 100 µM"
- compound: "COc1cc(CNc2ccccc2C(=O)N2CCN(C(=O)c3cc(-c4cc(OC)c(OC)c(OC)c4)n4nc(-c5ccccc5)cc4n3)CC2)cc(OC)c1OC"
  observed: "> 100 µM"
- compound: "CC(=O)N=C1N(/C=C2\\C(=O)Oc3ccccc3C2=O)C(=O)/C(=C/c2ccc(NC(C)=O)cc2)N1C"
  observed: "> 100 µM"

Q: Could you share which TGI value was measured for COc1ccc(-c2c3c(n(C4OC(COC(C)=O)C(OC(C)=O)C(OC(C)=O)C4OC(C)=O)c(=S)c2C#N)CC(C)(C)CC3=O)cc1 (configuration not stated) ?
Ans: > 100 µM

Q: Param item: c1c[nH]c(C23C4C5C6C4C2C6C53)n1 (configuration not stated)
Ans: > 100 µM

Q: Param item: Cc1ccc2nc(-c3ccc(N4C(=O)C(Cl)C4c4ccc(Cl)cc4)cc3)sc2c1 (configuration not stated)
Ans: 8.38 µM

Q: Param item: N#CC1=C(N)NC(N2CCOCC2)=NC12Nc1ccccc1N2
Ans: > 100 µM

Q: Param item: O=C1CC(c2cccc(Br)c2)n2cccc21 (configuration not stated)
Ans: > 100 µM
